// provenance: patent US20260212981A1

Experiment: Vancomycin concentration in blood/serum of human participants (blood draws)
Type: in vivo
Conditions: blood, iv, 1 gram, participant 014 (hyper-perfusion phenotype), single 1 gram IV infusion over 1 hour 40 minutes
Experimental readout: Cmax

Data request: Supply reported Cmax belonging to this compound: CN[C@H](CC(C)C)C(=O)N[C@H]1C(=O)N[C@@H](CC(N)=O)C(=O)N[C@H]2C(=O)N[C@H]3C(=O)N[C@H](C(=O)N[C@H](C(=O)O)c4cc(O)cc(O)c4-c4cc3ccc4O)[C@H](O)c3ccc(c(Cl)c3)Oc3cc2cc(c3O[C@@H]2O[C@H](CO)[C@@H](O)[C@H](O)[C@H]2O[C@H]2C[C@](C)(N)[C@H](O)[C@H](C)O2)Oc2ccc(cc2Cl)[C@H]1O
Data returned: ~35000 ng/mL
